target.or.test.system: bovine milk xanthine oxidase (Bos taurus, UniProt P80457)
Sequence (P80457 whole entry): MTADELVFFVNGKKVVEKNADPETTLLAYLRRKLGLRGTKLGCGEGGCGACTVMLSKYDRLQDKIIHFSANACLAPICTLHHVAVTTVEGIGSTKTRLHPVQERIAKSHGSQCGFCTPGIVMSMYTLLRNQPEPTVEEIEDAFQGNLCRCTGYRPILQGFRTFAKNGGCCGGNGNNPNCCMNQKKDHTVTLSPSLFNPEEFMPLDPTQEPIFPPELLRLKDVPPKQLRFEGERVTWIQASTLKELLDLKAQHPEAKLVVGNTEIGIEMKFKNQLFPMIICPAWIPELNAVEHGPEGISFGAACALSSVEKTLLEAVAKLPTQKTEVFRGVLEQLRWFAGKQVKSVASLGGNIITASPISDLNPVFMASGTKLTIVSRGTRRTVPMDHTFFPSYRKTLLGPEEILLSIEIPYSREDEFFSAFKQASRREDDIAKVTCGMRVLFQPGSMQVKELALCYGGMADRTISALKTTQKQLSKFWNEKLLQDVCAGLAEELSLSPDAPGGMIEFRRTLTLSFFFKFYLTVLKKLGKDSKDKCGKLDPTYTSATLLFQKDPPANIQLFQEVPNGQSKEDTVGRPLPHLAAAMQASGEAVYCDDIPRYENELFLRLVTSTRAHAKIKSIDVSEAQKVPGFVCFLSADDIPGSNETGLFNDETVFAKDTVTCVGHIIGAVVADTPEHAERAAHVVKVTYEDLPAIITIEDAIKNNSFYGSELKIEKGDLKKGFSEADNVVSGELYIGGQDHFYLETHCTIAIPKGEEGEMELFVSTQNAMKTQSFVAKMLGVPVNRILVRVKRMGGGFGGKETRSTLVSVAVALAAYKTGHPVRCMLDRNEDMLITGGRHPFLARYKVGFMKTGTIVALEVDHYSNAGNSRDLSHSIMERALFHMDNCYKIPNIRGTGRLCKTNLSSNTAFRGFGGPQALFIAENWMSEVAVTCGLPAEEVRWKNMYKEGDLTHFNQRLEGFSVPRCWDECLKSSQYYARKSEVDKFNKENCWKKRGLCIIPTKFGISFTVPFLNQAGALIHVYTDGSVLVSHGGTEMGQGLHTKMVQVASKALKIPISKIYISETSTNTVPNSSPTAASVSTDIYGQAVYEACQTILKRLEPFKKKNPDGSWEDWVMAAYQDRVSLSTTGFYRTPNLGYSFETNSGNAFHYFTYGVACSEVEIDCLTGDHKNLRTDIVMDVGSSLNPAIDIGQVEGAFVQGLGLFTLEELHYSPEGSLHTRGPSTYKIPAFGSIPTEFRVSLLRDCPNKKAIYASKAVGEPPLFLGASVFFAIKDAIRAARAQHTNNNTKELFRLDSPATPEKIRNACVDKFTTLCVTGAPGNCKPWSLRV
procedure.text: Capacity to sustain oxidation of xanthine by xanthine oxidase in the absence of oxygen, spectrophotometric
Type: biochemical
Set-up: host or cells: bovine milk
experimental.conditions: 50 μM hydroxyguanidine, 50 μM xanthine, 0.05 units/ml xanthine oxidase, anaerobic, pH 7.5, 20° C., blank subtracted
Structures can show the parent of a compound that is named as a salt.
Listed molecules paired with reported V = 1000 × (Δabs 295 nm) min^−1 (initial rate of the support of the oxidation of xanthine)

Below, each entry is followed by its recorded V = 1000 × (Δabs 295 nm) min^−1 (initial rate of the support of the oxidation of xanthine) result.
# molecule, recorded.result
data = [
    ("CC(=C/c1ccccc1)/C=N/NC(=N)NO [EN20]", "44 1000 × (Δabs 295 nm) min^−1"),
    ("COc1cccc(/C=N/NC(=N)NO)c1 [LT11, reference compound]", "26 1000 × (Δabs 295 nm) min^−1"),
    ("N=C(NO)N/N=C/c1nccs1 [PR16]", "13 1000 × (Δabs 295 nm) min^−1"),
    ("N=C(N)NO [Hydroxyguanidine, N-hydroxyguanidine]", "0.7 1000 × (Δabs 295 nm) min^−1"),
    ("COc1ccc(/C=N/NC(=N)NO)cc1O [DWO4, reference compound]", "36.7 1000 × (Δabs 295 nm) min^−1"),
]

Short answer on bovine milk xanthine oxidase (Bos taurus, UniProt P80457) for COc1ccc(/C=N/NC(=N)NO)cc1OC [DWO1, reference compound] , V = 1000 × (Δabs 295 nm) min^−1 (initial rate of the support of the oxidation of xanthine): 40 1000 × (Δabs 295 nm) min^−1

Short answer on bovine milk xanthine oxidase (Bos taurus, UniProt P80457) for N=C(NO)NN=CCc1ccccc1 [PR13, tosylate] , V = 1000 × (Δabs 295 nm) min^−1 (initial rate of the support of the oxidation of xanthine): 3 1000 × (Δabs 295 nm) min^−1

----------
target.or.test.system: bovine milk xanthine oxidase (Bos taurus, UniProt P80457)
procedure.text: Capacity to sustain oxidation of xanthine by xanthine oxidase in the absence of oxygen, spectrophotometric
Assay type: biochemical
Set-up: host or cells: bovine milk
experimental.conditions: 50 μM hydroxyguanidine, 50 μM xanthine, 0.05 units/ml xanthine oxidase, anaerobic, pH 7.5, 20° C., blank subtracted
quantity.name: V = 1000 × (Δabs 295 nm) min^−1 (initial rate of the support of the oxidation of xanthine)

Measured V = 1000 × (Δabs 295 nm) min^−1 (initial rate of the support of the oxidation of xanthine) of N=C(NO)N/N=C/c1ccc(/C=N/NC(=N)NO)cc1 [PR1] : 63 1000 × (Δabs 295 nm) min^−1

----------
target.or.test.system: bovine milk xanthine oxidase (Bos taurus)
procedure.text: Capacity to sustain oxidation of xanthine by xanthine oxidase in the absence of oxygen, spectrophotometric
Assay type: biochemical
Set-up: host or cells: bovine milk
experimental.conditions: 50 μM hydroxyguanidine, 50 μM xanthine, 0.05 units/ml xanthine oxidase, anaerobic, pH 7.5, 20° C., blank subtracted
Where a name gives a salt, the structure may show the parent alone.
Listed compounds paired with reported V = 1000 × (Δabs 295 nm) min^−1 (initial rate of the support of the oxidation of xanthine)

Below, each entry is followed by its recorded V = 1000 × (Δabs 295 nm) min^−1 (initial rate of the support of the oxidation of xanthine) result.
# compound, recorded.result
data = [
    ("COc1ccc(/C(C)=N/NC(=N)NO)cc1OC", "12 1000 × (Δabs 295 nm) min^−1"),
    ("COc1cc(Br)c(/C=N/NC(=N)NO)cc1OC [DWO6, reference compound]", "30.7 1000 × (Δabs 295 nm) min^−1"),
    ("N=C(NO)N/N=C/c1cc[n+](O)cc1", "5 1000 × (Δabs 295 nm) min^−1"),
    ("N=C(NO)N/N=C/c1ccc2c(c1)OCCO2 [LW04, reference compound]", "55 1000 × (Δabs 295 nm) min^−1"),
    ("COc1ccc(/C=N/NC(=N)NO)c(Cl)c1O [DWO5, reference compound]", "59.7 1000 × (Δabs 295 nm) min^−1"),
    ("N=C(NO)N/N=C/c1c2ccccc2c(Cl)c2ccccc12 [LW01, reference compound]", "0 1000 × (Δabs 295 nm) min^−1"),
    ("Cc1cc2oc(/C=N/NC(=N)NO)cc(=O)c2cc1Cl", "5 1000 × (Δabs 295 nm) min^−1"),
    ("N=C(NO)NN=Cc1c(Cl)cccc1Cl", "40 1000 × (Δabs 295 nm) min^−1"),
    ("N=C(NO)NN=Cc1ccco1", "11 1000 × (Δabs 295 nm) min^−1"),
    ("N=C(NO)NN=C(c1ccccc1)c1ccccc1", "1 1000 × (Δabs 295 nm) min^−1"),
]

Short answer on bovine milk xanthine oxidase (Bos taurus) for `N=C(NO)N/N=C/c1cccn1-c1ccc(Cl)cc1` , V = 1000 × (Δabs 295 nm) min^−1 (initial rate of the support of the oxidation of xanthine): 7 1000 × (Δabs 295 nm) min^−1

Short answer on bovine milk xanthine oxidase (Bos taurus) for COc1ccc(C=NNC(=N)NO)c(Cl)c1OC [PR5, tosylate] , V = 1000 × (Δabs 295 nm) min^−1 (initial rate of the support of the oxidation of xanthine): 96 1000 × (Δabs 295 nm) min^−1

Short answer on bovine milk xanthine oxidase (Bos taurus) for COc1ccc(/C=N/NC(=N)NO)c(OC)c1 [DWO3, reference compound] , V = 1000 × (Δabs 295 nm) min^−1 (initial rate of the support of the oxidation of xanthine): 29.4 1000 × (Δabs 295 nm) min^−1

Short answer on bovine milk xanthine oxidase (Bos taurus) for N=C(NO)N/N=C/C1CCCCC1 [LT10, reference compound] , V = 1000 × (Δabs 295 nm) min^−1 (initial rate of the support of the oxidation of xanthine): 3 1000 × (Δabs 295 nm) min^−1

Short answer on bovine milk xanthine oxidase (Bos taurus) for N=C(NN)NO [Aminohydroxyguanidine, 1-amino-3-hydroxyguanidine, reference compound] , V = 1000 × (Δabs 295 nm) min^−1 (initial rate of the support of the oxidation of xanthine): 1.4 1000 × (Δabs 295 nm) min^−1

Short answer on bovine milk xanthine oxidase (Bos taurus) for `N=C(NO)N/N=C\C=C/c1ccccc1` , V = 1000 × (Δabs 295 nm) min^−1 (initial rate of the support of the oxidation of xanthine): 66 1000 × (Δabs 295 nm) min^−1

Short answer on bovine milk xanthine oxidase (Bos taurus) for `Cc1nn(C)c(Cl)c1/C=N/NC(=N)NO` , V = 1000 × (Δabs 295 nm) min^−1 (initial rate of the support of the oxidation of xanthine): 13 1000 × (Δabs 295 nm) min^−1

Short answer on bovine milk xanthine oxidase (Bos taurus) for COc1ccc(/C=N/NC(=N)NO)cc1F [DWO7, reference compound] , V = 1000 × (Δabs 295 nm) min^−1 (initial rate of the support of the oxidation of xanthine): 30.7 1000 × (Δabs 295 nm) min^−1

Short answer on bovine milk xanthine oxidase (Bos taurus) for COc1cc(/C=N/NC(=N)NO)c([N+](=O)[O-])cc1OC [DWO8, reference compound] , V = 1000 × (Δabs 295 nm) min^−1 (initial rate of the support of the oxidation of xanthine): 45.4 1000 × (Δabs 295 nm) min^−1

Short answer on bovine milk xanthine oxidase (Bos taurus) for `N=C(NO)N/N=C/c1cccc(/C=N/NC(=N)NO)c1` , V = 1000 × (Δabs 295 nm) min^−1 (initial rate of the support of the oxidation of xanthine): 29 1000 × (Δabs 295 nm) min^−1

Short answer on bovine milk xanthine oxidase (Bos taurus) for N=C(NO)NN=Cc1ccc(C(F)(F)F)cc1 [EN12, tosylate] , V = 1000 × (Δabs 295 nm) min^−1 (initial rate of the support of the oxidation of xanthine): 11 1000 × (Δabs 295 nm) min^−1
